Test system: alkaline phosphatase activity in T47D cells
Experiment: T47D cell alkaline phosphatase assay
Type: cell-based
Settings: Homo sapiens, agonist mode, read-out: EC50 in the T47D alkaline phosphatase assay, test compounds
Experimental: 4. T47D Cell Alkaline Phosphatase Assay The purpose of this assay is to identify progestins or antiprogestins by determining a compound's effect on alkaline phosphatase activity in T47D cells. a. […] For reference and test compounds, a dose response curve is generated for dose (X-axis) vs. the rate of enzyme reaction (slope) (Y-axis). […] EC50 or IC50 values are calculated from the retransformed values.
pEC50: −log10 of the molar value.
Entries and their pEC50

Compound | Modifier | pEC50
Cn1c(C#N)ccc1-c1ccc2c(c1)C1(CCC1)OC(=S)N2 | = | 9.30
Cn1c(C#N)ccc1-c1ccc2c(c1)C1(CCCC1)OC(=S)N2 | = | 9.30
CCC1(CC)OC(=S)Nc2ccc(-c3ccc(C#N)n3C)cc21 | = | 10.00
Cn1c(C#N)ccc1-c1ccc2c(c1)C1(CCCCC1)OC(=S)N2 | = | 9.52
Cn1c(C#N)ccc1-c1ccc2c(c1)C(C(F)(F)F)(C(F)(F)F)OC(=S)N2 | > | 8.00
CCC1(C)OC(=S)Nc2ccc(-c3ccc(C#N)n3C)cc21 (stereo not drawn) | = | 10.00
